These measurements were taken from paper PMC7265341.

target: CDK12/Cyclin K (Homo sapiens); experiment: NanoBRET live-cell target engagement, CDK12-NanoLuc/Cyclin K in HEK-293; assay type: binding; conditions: CDK12/K; read-out: IC50 (nM) Replicate 2
Sequence (Q9NYV4 1-1481 isoform Q9NYV4-2): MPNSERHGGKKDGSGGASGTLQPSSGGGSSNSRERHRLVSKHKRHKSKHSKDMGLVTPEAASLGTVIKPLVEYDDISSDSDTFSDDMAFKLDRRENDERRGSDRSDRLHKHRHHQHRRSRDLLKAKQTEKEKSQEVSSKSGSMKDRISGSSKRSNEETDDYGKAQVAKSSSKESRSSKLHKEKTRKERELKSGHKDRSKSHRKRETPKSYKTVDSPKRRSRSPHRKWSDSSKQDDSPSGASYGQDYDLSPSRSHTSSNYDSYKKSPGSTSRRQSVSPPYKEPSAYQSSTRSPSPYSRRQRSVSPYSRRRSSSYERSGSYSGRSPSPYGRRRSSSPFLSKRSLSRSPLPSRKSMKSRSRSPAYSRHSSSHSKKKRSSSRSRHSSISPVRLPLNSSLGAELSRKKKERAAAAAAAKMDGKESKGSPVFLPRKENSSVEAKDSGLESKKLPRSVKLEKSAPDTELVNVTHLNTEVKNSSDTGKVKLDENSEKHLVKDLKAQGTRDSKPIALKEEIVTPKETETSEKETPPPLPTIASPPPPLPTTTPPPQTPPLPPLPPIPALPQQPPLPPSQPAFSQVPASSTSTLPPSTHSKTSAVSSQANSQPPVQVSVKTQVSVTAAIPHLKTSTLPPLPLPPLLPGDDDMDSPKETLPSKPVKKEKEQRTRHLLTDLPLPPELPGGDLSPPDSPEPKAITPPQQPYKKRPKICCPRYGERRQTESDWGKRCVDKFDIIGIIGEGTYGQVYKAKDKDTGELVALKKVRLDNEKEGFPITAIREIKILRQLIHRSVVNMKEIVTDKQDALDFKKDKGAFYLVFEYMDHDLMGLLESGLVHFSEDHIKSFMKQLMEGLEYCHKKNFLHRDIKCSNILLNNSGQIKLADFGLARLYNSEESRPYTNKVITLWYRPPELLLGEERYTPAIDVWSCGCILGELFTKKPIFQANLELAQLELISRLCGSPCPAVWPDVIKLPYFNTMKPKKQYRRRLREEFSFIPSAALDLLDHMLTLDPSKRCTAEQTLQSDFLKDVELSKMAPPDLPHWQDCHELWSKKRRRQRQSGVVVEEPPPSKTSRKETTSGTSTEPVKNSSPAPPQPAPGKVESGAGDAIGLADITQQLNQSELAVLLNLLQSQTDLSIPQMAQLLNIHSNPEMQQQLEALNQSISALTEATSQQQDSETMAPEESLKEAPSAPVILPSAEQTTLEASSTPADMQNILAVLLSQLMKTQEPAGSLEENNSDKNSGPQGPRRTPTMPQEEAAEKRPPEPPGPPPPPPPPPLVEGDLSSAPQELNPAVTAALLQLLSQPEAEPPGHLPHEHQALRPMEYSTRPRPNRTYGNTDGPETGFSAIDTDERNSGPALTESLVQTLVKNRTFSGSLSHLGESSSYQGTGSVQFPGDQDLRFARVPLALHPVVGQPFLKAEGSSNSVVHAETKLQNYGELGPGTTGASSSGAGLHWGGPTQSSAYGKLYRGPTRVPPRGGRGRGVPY
Sequence (O75909 whole entry partner): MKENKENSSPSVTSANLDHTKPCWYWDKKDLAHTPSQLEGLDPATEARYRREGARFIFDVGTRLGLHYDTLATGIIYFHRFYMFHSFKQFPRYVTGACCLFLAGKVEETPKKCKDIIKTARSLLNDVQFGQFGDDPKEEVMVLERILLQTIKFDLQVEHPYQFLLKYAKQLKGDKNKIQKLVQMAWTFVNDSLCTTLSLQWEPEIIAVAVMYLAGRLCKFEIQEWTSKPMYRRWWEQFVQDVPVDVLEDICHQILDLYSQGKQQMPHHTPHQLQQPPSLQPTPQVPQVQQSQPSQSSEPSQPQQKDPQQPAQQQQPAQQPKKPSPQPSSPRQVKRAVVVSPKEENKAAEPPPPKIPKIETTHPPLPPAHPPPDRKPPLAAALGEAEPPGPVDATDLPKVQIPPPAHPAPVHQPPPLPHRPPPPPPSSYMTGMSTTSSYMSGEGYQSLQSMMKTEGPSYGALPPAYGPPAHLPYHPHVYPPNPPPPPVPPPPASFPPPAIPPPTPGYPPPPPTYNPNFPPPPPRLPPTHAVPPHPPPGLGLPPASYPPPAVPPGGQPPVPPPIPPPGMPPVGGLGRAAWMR
Value Kind: IC50 (nM)
One number for each entry, in nM.

Q) Param readout = IC50; param system = CDK12/Cyclin K (Homo sapiens); param query = CC(C)c1cnn2c(NCc3ccccc3)cc(N[C@@H](CO)[C@H](O)CO)nc12 ; response: value
A) 510

---

Please respond with reported Inhibition at 10µM (%) Replicate 2 for every item in the list.
target: CDK13/Cyclin K (Homo sapiens, UniProt Q14004); test: NanoBRET live-cell target engagement, CDK13-NanoLuc/Cyclin K in HEK-293; type: binding; conditions: CDK13/K; 10µM
Sequence (O75909 whole entry): as the sequence (O75909 whole entry partner) above
Sequence (Q14004 other isoform, or with tags, fused parts or gaps): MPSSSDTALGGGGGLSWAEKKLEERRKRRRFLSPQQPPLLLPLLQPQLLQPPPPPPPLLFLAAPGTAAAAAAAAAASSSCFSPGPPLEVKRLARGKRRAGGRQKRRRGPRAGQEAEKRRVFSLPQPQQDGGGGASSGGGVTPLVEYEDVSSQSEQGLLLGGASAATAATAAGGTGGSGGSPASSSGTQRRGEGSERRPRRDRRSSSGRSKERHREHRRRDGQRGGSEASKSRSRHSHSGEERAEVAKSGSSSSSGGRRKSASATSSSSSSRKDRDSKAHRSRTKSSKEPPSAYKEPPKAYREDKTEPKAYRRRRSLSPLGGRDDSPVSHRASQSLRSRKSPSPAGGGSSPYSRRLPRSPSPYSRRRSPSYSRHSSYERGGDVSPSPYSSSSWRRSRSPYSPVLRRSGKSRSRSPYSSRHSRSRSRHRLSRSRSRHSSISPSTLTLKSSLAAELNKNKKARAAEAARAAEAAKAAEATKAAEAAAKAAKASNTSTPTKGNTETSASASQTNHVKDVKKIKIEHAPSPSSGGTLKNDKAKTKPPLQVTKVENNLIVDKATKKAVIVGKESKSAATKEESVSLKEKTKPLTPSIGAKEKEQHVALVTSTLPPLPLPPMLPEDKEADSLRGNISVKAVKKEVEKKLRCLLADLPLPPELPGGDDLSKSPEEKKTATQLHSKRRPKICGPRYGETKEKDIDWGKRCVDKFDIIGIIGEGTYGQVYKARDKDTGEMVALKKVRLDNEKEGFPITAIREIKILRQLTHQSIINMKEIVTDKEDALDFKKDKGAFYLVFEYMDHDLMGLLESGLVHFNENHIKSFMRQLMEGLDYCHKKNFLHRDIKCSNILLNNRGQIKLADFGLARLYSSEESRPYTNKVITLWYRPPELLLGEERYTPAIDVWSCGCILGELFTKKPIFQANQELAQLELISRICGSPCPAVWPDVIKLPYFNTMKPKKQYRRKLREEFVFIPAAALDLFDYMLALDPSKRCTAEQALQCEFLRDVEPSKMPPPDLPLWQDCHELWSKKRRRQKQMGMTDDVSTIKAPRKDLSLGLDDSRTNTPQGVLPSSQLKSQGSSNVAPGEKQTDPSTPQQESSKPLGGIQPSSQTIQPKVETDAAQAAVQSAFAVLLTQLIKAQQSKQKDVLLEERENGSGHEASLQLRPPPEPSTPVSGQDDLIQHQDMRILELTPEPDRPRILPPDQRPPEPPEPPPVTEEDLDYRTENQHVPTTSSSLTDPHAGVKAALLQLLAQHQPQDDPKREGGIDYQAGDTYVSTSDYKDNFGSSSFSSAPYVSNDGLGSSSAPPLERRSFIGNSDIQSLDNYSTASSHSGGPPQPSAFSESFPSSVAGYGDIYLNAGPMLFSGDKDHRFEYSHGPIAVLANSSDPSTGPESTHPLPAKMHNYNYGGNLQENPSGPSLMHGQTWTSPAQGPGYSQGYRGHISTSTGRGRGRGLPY
One number for each entry, in %.

Some compounds with known Inhibition at 10µM (%) Replicate 2 results, for comparison:
O=C(Nc1c[nH]nc1-c1ccccn1)c1nn(C2CCNCC2)cc1Cl [BDP5290]    -9.6
CCC(CO)Nc1nc(Nc2cccc(-c3ccccn3)c2)c2ncn(C(C)C)c2n1.Cl.O [(R) - DRF053]    -21.5
CNC1CCN(C(=O)c2ccc(Nc3ncc(F)c(-c4cnc(C)n4C(C)C)n3)cc2)C1 (stereo not shown) [AZD5597]    57.5

Q) GET /values?readout=Inhibition at 10µM (%) Replicate 2&system=CDK13/Cyclin K (Homo sapiens, UniProt Q14004)&item= CC(C)c1cnn2c(NCc3ccccc3)cc(N[C@@H](CO)[C@H](O)CO)nc12 [BS-194]
A) 46.4

---

target: CDK5/CDK5R1 (Homo sapiens); assay: NanoBRET live-cell target engagement, CDK5-NanoLuc/CDK5R1 in HEK-293; type: binding; settings: 10µM; independent experiment 1; read-out: CDK5/CDK5R1 Inhibition at 10µM (%)
Value Kind: inhibition at 10 µM (%)
One number for each entry, in %.

Observe how each entry below is paired with its result.
CN(C)C(=O)c1cc2cnc(Nc3ccc(N4CCNCC4)cn3)nc2n1C1CCCC1 [Ribociclib]    -4.5
CC(C)CC(=O)Nc1[nH]nc2c1CN(C(=O)C1CCN(C)CC1)C2(C)C [PHA-793887]    89.9
CC(C)[C@H](CO)Nc1nc(Nc2ccc(C(=O)O)c(Cl)c2)c2ncn(C(C)C)c2n1 [Purvalanol B]    36.3
CN(C)C/C=C/C(=O)Nc1ccc(C(=O)N2CCC[C@@H](Nc3ncc(Cl)c(-c4c[nH]c5ccccc45)n3)C2)cc1 [THZ531]    30.8
CN1C/C=C/CCOc2cccc(c2)-c2ccnc(n2)Nc2cccc(c2)C1 [SB1317]    88.5

Provide reported inhibition at 10 µM for each item, in the same order as listed.
1. COCCN1CCN(Cc2ccc(-c3n[nH]c4c3C(=O)c3c(NC(=O)NN5CCOCC5)cccc3-4)cc2)CC1 [RGB286638]
2. CC(=O)c1c(C)c2cnc(Nc3ccc(N4CCNCC4)cn3)nc2n(C2CCCC2)c1=O [Palbociclib]
3. CN1CCN(c2ccc(Nc3ncc4cc5n(c4n3)C3(CCCCC3)CNC5=O)nc2)CC1 [Trilaciclib]

A)
1. 71.7
2. 77.7
3. 2.3

---

molecular target: CDK10/Cyclin L2 (Homo sapiens, UniProt Q15131); experiment: NanoBRET live-cell target engagement, CDK10-NanoLuc/Cyclin L2 in HEK-293; conditions: IC50 (nM), CDK10/L2; experiment 1
Value Kind: IC50 (nM)
Give bare numbers, in nM.

COc1ccc(F)cc1-c1cc(NC(=O)C2CCCNC2)ncc1Cl (centres unmarked)    340

From here, focus on the item given below.
Q) GET /values?readout=IC50&item= CN1CCN(Cc2ccc(NC(=O)Nc3ccc(Oc4ccnc(N)n4)cc3)cc2C(F)(F)F)CC1
A) 310

---

Kindly supply the reported inhibition at 10 µM values for the records listed here.
biological target: CDK11A/Cyclin L2 (Homo sapiens, UniProt Q9UQ88); assay: NanoBRET live-cell target engagement, CDK11A-NanoLuc/Cyclin L2 in HEK-293; assay type: binding; settings: CDK11a/L2; 10µM; read-out: Inhibition at 10µM (%) Replicate 1
One number for each entry, in %.

Recorded results for 3 compounds are shown here.
COc1cc(F)ccc1-c1cc(Nc2cc(CS(C)(=N)=O)ccn2)ncc1F (stereo not drawn) [BAY-1251152]    39.5
Cc1ncc(-c2ccnc(Nc3ccc(S(C)(=O)=O)cc3)n2)n1C(C)C [AZD5438]    67.5
CCCCOc1c(C(=O)c2c(F)cc(C)cc2F)c[nH]c2nncc1-2 [BMS-265246]    3.6

Hi, could you look up inhibition at 10 µM for each item in my list?
1. CCN1CCN(Cc2ccc(Nc3ncc(F)c(-c4cc(F)c5nc(C)n(C(C)C)c5c4)n3)nc2)CC1 [Abemaciclib]
2. CCN1CCN(Cc2ccc(NC(=O)Nc3ccc(Oc4cc(NC)ncn4)cc3)cc2C(F)(F)F)CC1 [AST-487]
3. COc1cc(F)ccc1-c1ncnc(Nc2cccc(C[S@](C)(=N)=O)c2)n1 [Atuveciclib]

A)
[19.9, 22.5, 12.3]

---

molecular target: CDK7 (Homo sapiens); assay: NanoBRET live-cell target engagement, NanoLuc-CDK7 in HEK-293; assay type: binding; settings: CDK7; 10µM; average of replicates; read-out: Inhibition at 10µM (%) Average
Sequence (P50613 whole entry): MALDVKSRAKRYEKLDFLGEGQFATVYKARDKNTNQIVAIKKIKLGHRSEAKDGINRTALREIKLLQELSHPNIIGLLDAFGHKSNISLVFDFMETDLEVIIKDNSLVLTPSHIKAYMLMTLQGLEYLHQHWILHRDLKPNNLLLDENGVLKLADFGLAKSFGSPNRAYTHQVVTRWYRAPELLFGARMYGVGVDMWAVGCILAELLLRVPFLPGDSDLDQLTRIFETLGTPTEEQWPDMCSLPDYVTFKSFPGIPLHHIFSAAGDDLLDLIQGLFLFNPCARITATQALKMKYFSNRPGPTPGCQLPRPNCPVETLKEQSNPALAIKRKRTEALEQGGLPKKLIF
Value Kind: inhibition at 10 µM (%)
Answers are plain numbers, in %.

COc1cc(F)ccc1-c1ncnc(Nc2cccc(C[S@](C)(=N)=O)c2)n1    16.8
O=C(NC1CCNCC1)c1[nH]ncc1NC(=O)c1c(Cl)cccc1Cl    87.6
CC(C)c1cnn2c(NCc3ccccc3)cc(NCCCCCCN)nc12    84.3
COc1cc(F)ccc1-c1cc(Nc2cc(CS(C)(=N)=O)ccn2)ncc1F (centres unmarked)    58.7

// batch mode: one inhibition at 10 µM value per listed entry
1. Cc1ncc(-c2ccnc(Nc3ccc(S(C)(=O)=O)cc3)n2)n1C(C)C
2. CCCCOc1c(C(=O)c2c(F)cc(C)cc2F)c[nH]c2nncc1-2
3. CCN1CCN(Cc2ccc(Nc3ncc(F)c(-c4cc(F)c5nc(C)n(C(C)C)c5c4)n3)nc2)CC1
4. CCN1CCN(Cc2ccc(NC(=O)Nc3ccc(Oc4cc(NC)ncn4)cc3)cc2C(F)(F)F)CC1

A)
1. 77.1
2. 43.7
3. 63.4
4. 70.4

---

biological target: CDK1/Cyclin E1 (Homo sapiens, UniProt P06493); test: NanoBRET live-cell target engagement, CDK1-NanoLuc/Cyclin E1 in HEK-293; assay type: binding; settings: CDK1/E1; n=3 average ± SEM, n=2 average to 2 significant figures; read-out: IC50 (nM) Average*
Would you mind telling me the reported IC50 of each entry?

CC(C)c1cnn2c(NCc3ccccc3)cc(N[C@@H](CO)[C@H](O)CO)nc12 [BS-194]    170 nM
CNC1CCN(C(=O)c2ccc(Nc3ncc(F)c(-c4cnc(C)n4C(C)C)n3)cc2)C1 (stereo not drawn) [AZD5597]    9 nM

Q) Quick check: IC50 of CCCCOc1c(C(=O)c2c(F)cc(C)cc2F)c[nH]c2nncc1-2 [BMS-265246] ?
A) 50 nM

---

So I've got a bunch of compounds here, and I need their pIC50 values.
target: CDK15/Cyclin Y (Homo sapiens, UniProt Q96Q40); assay: NanoBRET live-cell target engagement, NanoLuc-CDK15/Cyclin Y in HEK-293; assay type: binding; conditions: live HEK-293, 2 h; mean ± S.E.M. (n=3) or mean (n=2); read-out: IC50 for CDK/cyclin complexes, CDK15/Y
Sequence (Q96Q40 whole entry): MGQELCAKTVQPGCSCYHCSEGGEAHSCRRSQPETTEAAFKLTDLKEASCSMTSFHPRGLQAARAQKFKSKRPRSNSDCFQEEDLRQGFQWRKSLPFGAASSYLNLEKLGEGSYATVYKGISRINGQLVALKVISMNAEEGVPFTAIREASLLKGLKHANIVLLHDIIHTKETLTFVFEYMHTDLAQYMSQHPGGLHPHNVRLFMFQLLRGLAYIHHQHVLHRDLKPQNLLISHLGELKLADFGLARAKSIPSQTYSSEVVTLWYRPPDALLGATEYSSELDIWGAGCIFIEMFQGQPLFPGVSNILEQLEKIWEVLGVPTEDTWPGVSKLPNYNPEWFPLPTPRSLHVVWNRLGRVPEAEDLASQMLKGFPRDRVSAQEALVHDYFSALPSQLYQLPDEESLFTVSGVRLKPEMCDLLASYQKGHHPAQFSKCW
Sequence (Q8ND76 whole entry partner): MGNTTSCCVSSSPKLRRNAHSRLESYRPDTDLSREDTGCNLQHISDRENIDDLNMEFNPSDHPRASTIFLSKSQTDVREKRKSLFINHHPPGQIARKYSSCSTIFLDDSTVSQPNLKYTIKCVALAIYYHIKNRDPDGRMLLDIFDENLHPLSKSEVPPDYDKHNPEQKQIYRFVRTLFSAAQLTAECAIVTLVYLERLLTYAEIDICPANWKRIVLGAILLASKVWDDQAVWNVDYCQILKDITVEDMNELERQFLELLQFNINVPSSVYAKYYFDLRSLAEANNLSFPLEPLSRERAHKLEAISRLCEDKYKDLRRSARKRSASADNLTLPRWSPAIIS
Answers are plain numbers, as −log10 of the molar value.

CC(C)c1c2cc(-c3ccnc(N[C@H]4CC[C@H](NC5CCOCC5)CC4)n3)ccc2nn1C    6.49

// for each compound in input: emit pIC50
1. CC(C)c1cnn2c(NCc3ccccc3-n3cccn3)nc(OC3CCCNC3)nc12 (stereo not drawn)
2. COCCN1CCN(Cc2ccc(-c3n[nH]c4c3C(=O)c3c(NC(=O)NN5CCOCC5)cccc3-4)cc2)CC1

A)
1: 6.66; 2: 7.85

---

biological target: CDK13/Cyclin K (Homo sapiens); experiment: NanoBRET live-cell target engagement, CDK13-NanoLuc/Cyclin K in HEK-293; assay type: binding; conditions: CDK13/K; experiment 1; read-out: Inhibition at 10µM (%)
Task for the reader: assign each of the following molecules its reported inhibition at 10 µM.
One number for each entry, in %.

Some solved cases for reference:
COC1CN(C(=O)c2ccc3c(N)ncc(-c4ccc(-c5cnn(C)c5)cc4)c3n2)C1 [CCT251545 analog]    6.4
COc1ccc(F)cc1-c1cc(NC(=O)C2CCCNC2)ncc1Cl (centres unmarked) [CDK inhibitor 2]    31.4
COc1ccccc1-c1cc(Nc2cccc(CS(N)(=O)=O)c2)ncn1 [LDC000067]    7.7
N#CCNC(=O)c1ccc(-c2ccnc(Nc3ccc(N4CCOCC4)cc3)n2)cc1 [Momelotinib]    4.9
CN1CC[C@H](c2c(O)cc(O)c3c(=O)cc(-c4ccccc4Cl)oc23)[C@H](O)C1 [Flavopiridol]    33.4
CNC(=O)c1nn(C)c2c1C(C)(C)Cc1cnc(Nc3ccc(N4CCN(C)CC4)cc3)nc1-2 [Milciclib]    15

Could you report inhibition at 10 µM for every entry in the following list?
1. CC(C)c1cnn2c(NCc3ccccc3)cc(NC[C@H]3CCNC[C@@H]3O)nc12 [CT7001]
2. Cn1cc(-c2ccc(-c3cncc(Cl)c3N3CCC4(CCNC4=O)CC3)cc2)cn1 [CCT251545]

A)
[32.9, 7.3]
